target: T1, PSMA Fab; experiment: binding ELISA; PSMA Fab titrated on plate-captured biotinylated peptide
T1 construct: also called 006 PSMA Fab; anti-PSMA Fab
Where no end group is shown, it is not given here.
Okay, here is how we bin by EC50: LOW = under 6 nM, MID = from 6 nM up to 20 nM, HIGH = 20 nM and over

binder	category.label
VEKVCKPVWMCVGF (From the Peptide-180 optimisation phage library) [Peptide-268]	LOW
EDILCKPKWMCEGF (From the Peptide-180 optimisation phage library) [Peptide-271]	LOW
VERLCTPAWMCHGF (From the Peptide-180 optimisation phage library) [Peptide-285]	HIGH
ITPVCKPLWMCSGL (From the Peptide-180 optimisation phage library) [Peptide-274]	LOW
TVAYCKPAWMCQGF (From the Peptide-180 optimisation phage library) [Peptide-283]	MID
ESRLCVPAWMCAGF (From the Peptide-180 optimisation phage library) [Peptide-270]	MID
IAVLCQPNWMCAGF (cysteine pairing not given here; also: biotinylated, site not given here, PSMA mask peptide) [Peptide-180]	HIGH
AVKACIPEWMCIGF (From the Peptide-180 optimisation phage library) [Peptide-263]	MID
IVVKCVPSWMCEGF (From the Peptide-180 optimisation phage library) [Peptide-282]	MID
VLKYCIPDWMCAGI (From the Peptide-180 optimisation phage library) [Peptide-286]	LOW
